- studySystem: Ribonucleoside-diphosphate reductase large subunit (Herpes simplex virus (type 1 / strain 17), UniProt P08543)
- Sequence (P08543 whole entry): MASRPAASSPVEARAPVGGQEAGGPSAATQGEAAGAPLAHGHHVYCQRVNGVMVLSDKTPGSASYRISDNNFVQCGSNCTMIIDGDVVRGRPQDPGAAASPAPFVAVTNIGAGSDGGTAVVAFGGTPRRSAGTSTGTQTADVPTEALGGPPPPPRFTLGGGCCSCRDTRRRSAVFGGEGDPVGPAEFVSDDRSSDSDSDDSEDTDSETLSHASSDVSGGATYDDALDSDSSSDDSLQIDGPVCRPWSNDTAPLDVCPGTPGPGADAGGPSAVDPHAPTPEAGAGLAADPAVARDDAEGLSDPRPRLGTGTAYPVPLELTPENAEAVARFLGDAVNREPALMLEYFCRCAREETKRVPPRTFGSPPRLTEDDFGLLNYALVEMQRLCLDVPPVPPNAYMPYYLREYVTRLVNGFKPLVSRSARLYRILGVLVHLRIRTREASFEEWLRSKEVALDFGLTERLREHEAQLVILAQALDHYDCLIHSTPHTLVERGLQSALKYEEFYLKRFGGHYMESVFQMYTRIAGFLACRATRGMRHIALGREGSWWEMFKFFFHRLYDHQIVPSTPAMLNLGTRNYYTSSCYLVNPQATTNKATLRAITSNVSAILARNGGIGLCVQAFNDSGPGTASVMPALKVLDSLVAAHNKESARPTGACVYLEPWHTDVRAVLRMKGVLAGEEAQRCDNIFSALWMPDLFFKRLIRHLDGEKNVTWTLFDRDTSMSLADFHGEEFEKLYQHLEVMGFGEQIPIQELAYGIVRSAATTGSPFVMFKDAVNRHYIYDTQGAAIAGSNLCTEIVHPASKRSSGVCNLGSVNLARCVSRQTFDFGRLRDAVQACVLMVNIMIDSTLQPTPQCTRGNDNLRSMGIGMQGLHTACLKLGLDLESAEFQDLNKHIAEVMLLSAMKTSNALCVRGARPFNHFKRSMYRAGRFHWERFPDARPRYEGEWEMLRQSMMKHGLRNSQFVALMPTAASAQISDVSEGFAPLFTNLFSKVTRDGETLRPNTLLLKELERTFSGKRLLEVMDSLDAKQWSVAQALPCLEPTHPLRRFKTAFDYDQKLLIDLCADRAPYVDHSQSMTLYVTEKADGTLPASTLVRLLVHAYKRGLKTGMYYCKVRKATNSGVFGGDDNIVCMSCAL
- runDescription: Inhibitory activity against Herpes simplex virus (HSV) ribonucleotide reductase (RR)
Numbered stars: 1 amine (or outer) side, 2 acyl side, 3 side chain; on linkers, the order of the positions; unused ones are H or OH. Square brackets hold non-standard residues; d marks the D form. Peptide text beside a SMILES is read from it. * marks the point of attachment. Hydrocinnamoyl = O=C(CCc1ccccc1)*; Tle = CC(C)(C)[C@H](N)C(=O)O; Pip = O=C(O)[C@@H]1CCCCN1; NH(3-pentyl) = CCC(CC)N*; Pyrrolidide = C1CCN(*)C1; CO = O=C([*:1])[*:2]; X3 = CCC(CC)OC(=O)*; X1 = CCCC(CCC)N*
Grouping rule (IC50): small value = under 40 nM, mid value = from 40 nM up to 700 nM, large value = 700 nM and over

Take a look at these entries with their results.
compound	class
CCC(CC)NC(=O)N[C@H](C(=O)N1CCC(C(=O)N2CCCC2)[C@H]1C(=O)N[C@@H](CC(=O)O)C(=O)N[C@@H](CC(C)C)C(=O)O)C(C)(C)C (stereo not given in full)	mid value
CCC(CC)NC(=O)N[C@H](C(=O)N1CCCC[C@H]1C(=O)N[C@@H](CC(=O)O)C(=O)N[C@@H](CC(C)C)C(=O)O)C(C)(C)C ({NH(3-pentyl)-CO}-[Tle][Pip]DL-OH)	large value
CCC(CC)OC(=O)N[C@H](C(=O)N[C@@H](CC(=O)N1CCCC1)C(=O)N[C@@H](CC(=O)O)C(=O)N[C@@H](CC(C)C)C(=O)O)C(C)(C)C (X3-[Tle]D(Pyrrolidide)DL-OH)	mid value

Problem: Class (by measured IC50) for CCC(CC)NC(=O)NCC(=O)N[C@@H](CC(=O)N1CCCC1)C(=O)N[C@@H](CC(=O)O)C(=O)N[C@@H](CC(C)C)C(=O)O ({NH(3-pentyl)-CO}-GD(Pyrrolidide)DL-OH)
Result: mid value

Problem: CCC(CC)NC(=O)N[C@H](C(=O)N[C@@H](CC(=O)N1CCCC1)C(=O)N[C@@H](CC(=O)O)C(=O)N[C@@H](CC(C)C)C(=O)O)C(C)C ({NH(3-pentyl)-CO}-VD(Pyrrolidide)DL-OH) ?
Result: small value

Problem: CCC(CC)NC(=O)N[C@H](C(=O)N[C@@H](C)C(=O)N[C@@H](CC(=O)O)C(=O)N[C@@H](CC(C)C)C(=O)O)C(C)(C)C ({NH(3-pentyl)-CO}-[Tle]ADL-OH) ?
Result: large value

Problem: CCC(CC)NC(=O)N[C@@H](C)C(=O)N[C@@H](CC(=O)N1CCCC1)C(=O)N[C@@H](CC(=O)O)C(=O)N[C@@H](CC(C)C)C(=O)O ({NH(3-pentyl)-CO}-AD(Pyrrolidide)DL-OH) ?
Result: large value

Problem: CCCC(CCC)NC(=O)N[C@H](C(=O)N[C@@H](CC(=O)N1CCCC1)C(=O)N[C@@H](CC(=O)O)C(=O)N[C@@H](CC(C)C)C(=O)O)C(C)C ({X1-CO}-VD(Pyrrolidide)DL-OH) ?
Result: small value

Problem: CC(C)C[C@H](NC(=O)[C@H](CC(=O)O)NC(=O)[C@H](CC(=O)N1CCCC1)NC(=O)[C@@H](NC(=O)[C@@H](NC(=O)CCc1ccccc1)C(C)C)C(C)C)C(=O)O (Hydrocinnamoyl-VVD(Pyrrolidide)DL-OH) ?
Result: small value

Problem: CCC(CC)NC(=O)N[C@H](C(=O)N[C@@H](CC(=O)NC)C(=O)N[C@@H](CC(=O)O)C(=O)N[C@@H](CC(C)C)C(=O)O)C(C)(C)C ({NH(3-pentyl)-CO}-[Tle]D(NHMe)DL-OH) ?
Result: small value

----------
- studySystem: Ribonucleoside-diphosphate reductase large subunit (Herpes simplex virus (type 1 / strain 17))
- runDescription: Inhibitory activity against Herpes simplex virus (HSV) ribonucleotide reductase (RR)
Numbered stars: 1 amine (or outer) side, 2 acyl side, 3 side chain; on linkers, the order of the positions; unused ones are H or OH. Square brackets hold non-standard residues; d marks the D form. Peptide text beside a SMILES is read from it. * marks the point of attachment. Butanoyl(2-Et) = CCC(CC)C(=O)*; Tle = CC(C)(C)[C@H](N)C(=O)O; NH(3-pentyl) = CCC(CC)N*; Pyrrolidide = C1CCN(*)C1; CO = O=C([*:1])[*:2]; X2 = CCC(CC)CC(=O)*; NHiPr = CC(C)N*
propertyName: pIC50
The read-out pIC50 is expressed as -log10 of concentration in moles per litre.

compound	assayResult
CCC(CC)NC(=O)N[C@H](C(=O)N1CCC[C@H]1C(=O)N[C@@H](CC(=O)O)C(=O)N[C@@H](CC(C)C)C(=O)O)C(C)(C)C ({NH(3-pentyl)-CO}-[Tle]PDL-OH)	4.00
CCC(CC)CC(=O)N[C@H](C(=O)N[C@@H](CC(=O)N1CCCC1)C(=O)N[C@@H](CC(=O)O)C(=O)N[C@@H](CC(C)C)C(=O)O)C(C)(C)C (X2-[Tle]D(Pyrrolidide)DL-OH)	6.85
CCC(CC)NC(=O)NC1CCN([C@@H](CC(=O)N2CCCC2)C(=O)N[C@@H](CC(=O)O)C(=O)N[C@@H](CC(C)C)C(=O)O)C1=O (stereo partly drawn)	6.10
CCC(CC)NC(=O)C[C@H](C(=O)N[C@@H](CC(=O)N1CCCC1)C(=O)N[C@@H](CC(=O)O)C(=O)N[C@@H](CC(C)C)C(=O)O)C(C)(C)C	8.30
CCC(CC)C(=O)N[C@H](C(=O)N[C@@H](CC(=O)N1CCCC1)C(=O)N[C@@H](CC(=O)O)C(=O)N[C@@H](CC(C)C)C(=O)O)C(C)C ({Butanoyl(2-Et)}-VD(Pyrrolidide)DL-OH)	6.07

Problem: Quick one: pIC50 of CC(=O)N[C@H](C(=O)N[C@H](C(=O)N[C@@H](CC(=O)N1CCCC1)C(=O)N[C@@H](CC(=O)O)C(=O)N[C@@H](CC(C)C)C(=O)O)C(C)C)C(C)C (Ac-VVD(Pyrrolidide)DL-OH) ?
Result: 6.06

Problem: CCC(CC)NC(=O)N[C@H](C(=O)N1CCCC(C(=O)N2CCCC2)C1C(=O)N[C@@H](CC(=O)O)C(=O)N[C@@H](CC(C)C)C(=O)O)C(C)(C)C (stereo in doubt; 16) ?
Result: 7.49

Problem: CCC(CC)NC(=O)N[C@H](C(=O)N[C@@H](CC(=O)N1CCCC1)C(=O)N[C@@H](CC(=O)O)C(=O)N[C@@H](CC(C)C)C(=O)O)C(C)(C)C ({NH(3-pentyl)-CO}-[Tle]D(Pyrrolidide)DL-OH) ?
Result: 8.52

Problem: CCC(CC)NC(=O)NC1CCCN([C@@H](CC(=O)N2CCCC2)C(=O)N[C@@H](CC(=O)O)C(=O)N[C@@H](CC(C)C)C(=O)O)C1=O (stereo partly drawn) ?
Result: 6.62

Problem: CNC(=O)N[C@H](C(=O)N[C@@H](CC(=O)N1CCCC1)C(=O)N[C@@H](CC(=O)O)C(=O)N[C@@H](CC(C)C)C(=O)O)C(C)C ({NHMe-CO}-VD(Pyrrolidide)DL-OH) ?
Result: 4.38

Problem: CCC(CC)NC(=O)N[C@H](C(=O)N1CCCC(C(=O)NC)C1C(=O)N[C@@H](CC(=O)O)C(=O)N[C@@H](CC(C)C)C(=O)O)C(C)(C)C (stereo partly drawn) ?
Result: 8.00

Problem: CC(C)C[C@H](NC(=O)[C@H](CC(=O)O)NC(=O)[C@H](CC(=O)N1CCCC1)NC(=O)[C@@H](NC(=O)NC(C)C)C(C)C)C(=O)O ({NHiPr-CO}-VD(Pyrrolidide)DL-OH) ?
Result: 6.36

Problem: CCC(CC)NC(=O)N[C@H](C(=O)N1CCCC(C(=O)N2CCCC2)C1C(=O)N[C@@H](CC(=O)O)C(=O)N[C@@H](CC(C)C)C(=O)O)C(C)(C)C (stereo in doubt; 17) ?
Result: 5.52
